# Experiment Summary: In vivo pharmacokinetic after oral administration
# Parameters: species or system SD rats
# Experimental Parameters: SD, rat, plasma, po, 30 mg/kg
Structures can show the parent of a compound that is named as a salt.
Observation Type: Tmax (h)
Field: numeric (h). Do not append units.

Q: What value of Tmax has been reported for the following compound? COc1cccc2c1C(=O)c1c(O)c3c(c(O)c1C2=O)C[C@@](O)(C(=O)CO)C[C@@H]3O[C@H]1C[C@H](N)[C@H](O)[C@H](C)O1 [DOX, doxorubicin hydrochloride]
Result: 1

###

# Experiment Summary: In vivo pharmacokinetic after oral administration
# Set-up: species or system SD rats
# Experimental Parameters: SD, rat, plasma, po, 30 mg/kg
Counter-ions that a name gives are not always drawn.
Observation Type: Cmax
Number plus unit, in that order.

Q: // Cmax lookup, key: COc1cccc2c1C(=O)c1c(O)c3c(c(O)c1C2=O)C[C@@](O)(C(=O)CO)C[C@@H]3O[C@H]1C[C@H](N)[C@H](O)[C@H](C)O1 [DOX, doxorubicin hydrochloride]
Result: 160 ng/mL
